The reader will find reported melting point values listed item by item below.

These recorded examples may help you get a feel for the data.
CCc1cc(C#N)ccc1N1C(=O)C(=O)N(C(C)(C)CC)C1=S [Example 5]: 172.8 to 173.3 °C
CCC(C)(C)N1C(=O)C(=O)N(c2ccc(C#N)cc2)C1=S [Example 3]: 173.1 to 174.3 °C
CN(C)c1ccc(N2C(=O)C(=O)N(CC(C)(C)C)C2=S)cc1.Cl [Example 9]: 244 to 246 °C
CC(N1C(=O)C(=O)N(c2ccc(C#N)cc2)C1=S)C(C)(C)C (racemic) [Example 1]: 219.6 to 219.9 °C
CC(C)(C)CN1C(=O)C(=O)N(c2ccc(F)cc2F)C1=S [Example 11]: 156.2 to 156.9 °C
CC(C)(C)N1C(=O)C(=O)N(c2ccc(C#N)cc2)C1=S [Example 4]: 200.4 to 201.3 °C
CC(N1C(=O)C(=O)N(c2ccc(F)cc2F)C1=S)C(C)(C)C (stereo not drawn) [Example 10]: 155.2 to 156 °C
CC(N1C(=O)C(=O)N(c2cccc(C#N)c2)C1=S)C(C)(C)C (stereo not drawn) [Example 7]: 168.1 to 168.7 °C
C[C@@H](N1C(=O)C(=O)N(c2ccc(C#N)cc2)C1=S)C(C)(C)C [Example 6]: 197.6 to 197.8 °C
CC(N1C(=O)C(=O)N(c2ccc(Br)cc2)C1=S)C(C)(C)C (stereo not drawn) [Example 8]: 207.1 to 207.9 °C

Inquiry: Give its melting point value. Item: CC(C)(C)CN1C(=O)C(=O)N(c2ccc(F)cc2)C1=S [Example 14]
Reply text: 165.2 to 166.3 °C

Inquiry: Same question for CC(C)(C)CN1C(=O)C(=O)N(c2cccnc2)C1=S [Example 15] please.
Reply text: 111.4 to 112.8 °C

Inquiry: Same question for CC(N1C(=O)C(=O)N(c2ccc(C(C)(C)C)cc2)C1=S)C(C)(C)C (stereo not drawn) [Example 13] please.
Reply text: 208.9 to 209.5 °C

Inquiry: Same question for CC(N1C(=O)C(=O)N(c2ccc(Cl)cc2)C1=S)C(C)(C)C (stereo not drawn) [Example 12] please.
Reply text: 198.8 to 199.5 °C

Inquiry: Same question for CC(C)(C)CN1C(=O)C(=O)N(c2ccc(C#N)cc2)C1=S [Example 2] please.
Reply text: 128 to 129 °C

###

test system: isolated rat bladder strips; experiment: Inhibition of contractions in isolated rat bladder strips; conditions: 0.5 h, 15 mM KCl-enhanced contractile activity, 30 minute challenge
The reader will find reported pIC50 values listed item by item below.
The read-out pIC50 is expressed as -log10 of concentration in moles per litre.

CCc1cc(C#N)ccc1N1C(=O)C(=O)N(C(C)(C)CC)C1=S: 4.54
CC(N1C(=O)C(=O)N(c2ccc(C#N)cc2)C1=S)C(C)(C)C (racemic): 5.48
CC(C)(C)CN1C(=O)C(=O)N(c2cccnc2)C1=S: 5.44
CC(N1C(=O)C(=O)N(c2ccc(Br)cc2)C1=S)C(C)(C)C (centres unmarked): 4.57
CC(C)(C)N1C(=O)C(=O)N(c2ccc(C#N)cc2)C1=S: 4.52
CCC(C)(C)N1C(=O)C(=O)N(c2ccc(C#N)cc2)C1=S: 4.59
C[C@@H](N1C(=O)C(=O)N(c2ccc(C#N)cc2)C1=S)C(C)(C)C: 5.38

Inquiry: // fetch isolated rat bladder strips pIC50 for CC(C)(C)CN1C(=O)C(=O)N(c2ccc(C#N)cc2)C1=S
Reply text: 5.47
